EXPERIMENTAL_PROTOCOL: Aggregate analysis by widefield fluorescence microscopy
Type: physicochemical
RECORDED_CONDITIONS: Fig S8 panels B, D; widefield fluorescence microscopy, 3 fields of 1330 µm x 1330 µm
Description: 4 µL of 1 mg/mL peptide fibrils solution is added to a 20 µL, 50 µM ThT–solution in PBS. The mixture is incubated for 15 min at RT to allow binding of ThT dye with β–sheet rich structures. […] Fluorescence spectra were recorded on an Infinite® M1000 PRO microplate reader (Tecan) at λem = 488 nm upon excitation at λex = 440 nm with 10 nm bandwidths and multiple reads per well (3×3). […] Furthermore, fluorescence microscopy was conducted by staining 1 µL preformed fibrils (1 mg/mL) with 9 µL ThT (50 µM). […]
# cutoff 200 applies to Number of aggregates in 3 * (1330 µm *1330 µm); >= gives rule met, < gives rule not met

Determine whether measured Number of aggregates in 3 * (1330 µm *1330 µm) meets or exceeds 200 for CKIKQII [MG4a]
rule not met

Determine whether this substance has Number of aggregates in 3 * (1330 µm *1330 µm) no lower than 200: CKIKIQI [MG3b]
rule met

Could you tell me if the measured Number of aggregates in 3 * (1330 µm *1330 µm) of CKFKFQFNM [BL3] reaches 200 or more?
rule not met

Could you please find out whether KIKIQIN [JGB3] has Number of aggregates in 3 * (1330 µm *1330 µm) that meets 200 or exceeds it?
rule not met

Check this substance for Number of aggregates in 3 * (1330 µm *1330 µm) at or above 200: CKWKWQW [KB4]
rule not met

Does CKFKFQFW [TM72] have a reported Number of aggregates in 3 * (1330 µm *1330 µm) of at least 200?
rule met

Is the recorded value of Number of aggregates in 3 * (1330 µm *1330 µm) equal to or greater than 200 for this substance? HHHHKIKIKIKIYYYY [TM6]
rule not met

Is Number of aggregates in 3 * (1330 µm *1330 µm) at least 200? Consider CKFKQFFNM [CK14]
rule met
